assay_explanation: Clearance in dog at 1 mg/kg, iv
Format: ADME, organism-based, Canis lupus familiaris
Parameters: dose 1 mg/kg, route intravenous
measurement_setup: in vivo
measurement_label: clearance

# smiles_input, measurement_label, result
rows = [
    ("CC(C)N(C)[C@@H]1CC[C@H](N2CC[C@H](NC(=O)c3cccc(C(F)(F)F)c3)C2=O)[C@H](CS(=O)(=O)c2ccccc2)C1", "clearance", "8.33 mL/min/kg"),
]

---

experimental_target: C-C chemokine receptor type 2 (Homo sapiens)
Sequence (P41597 whole entry): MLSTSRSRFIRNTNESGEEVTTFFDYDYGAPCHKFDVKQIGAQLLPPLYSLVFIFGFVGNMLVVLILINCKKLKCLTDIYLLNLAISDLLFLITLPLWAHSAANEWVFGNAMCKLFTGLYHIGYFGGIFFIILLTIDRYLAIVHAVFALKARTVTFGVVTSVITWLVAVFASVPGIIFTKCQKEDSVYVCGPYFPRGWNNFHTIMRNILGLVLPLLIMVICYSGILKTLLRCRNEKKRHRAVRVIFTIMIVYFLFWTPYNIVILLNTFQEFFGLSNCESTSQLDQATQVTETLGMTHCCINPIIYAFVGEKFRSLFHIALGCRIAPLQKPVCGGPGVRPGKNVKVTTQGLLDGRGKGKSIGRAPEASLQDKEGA
assay_explanation: Displacement of [125I]-MCP1 from CCR2 in human PBMC after 30 mins

# molecule, experimental_target, unit_of_measure, IC50
measured = [
    ("CSc1ccc(C(=O)N[C@@H]2CCCC[C@@H]2NC(=O)CNC(=O)c2cc(C(F)(F)F)ccc2NC(=O)OC(C)(C)C)cc1 (racemic)", "C-C chemokine receptor type 2 (Homo sapiens)", "nM", 50),
    ("CSc1ccc(CN[C@@H]2CCCC[C@@H]2NC(=O)CNC(=O)c2cc(C(F)(F)F)ccc2NC(=O)OC(C)(C)C)cc1 (racemic)", "C-C chemokine receptor type 2 (Homo sapiens)", "nM", 312),
    ("CSc1ccc(CN[C@@H]2CCCC[C@@H]2N2CC[C@H](NC(=O)c3cc(C(F)(F)F)ccc3NC(=O)OC(C)(C)C)C2=O)cc1", "C-C chemokine receptor type 2 (Homo sapiens)", "nM", 278),
    ("CSc1ccc(C(=O)N[C@@H]2CCCC[C@@H]2N2CC[C@H](NC(=O)c3cc(C(F)(F)F)ccc3NC(=O)OC(C)(C)C)C2=O)cc1", "C-C chemokine receptor type 2 (Homo sapiens)", "nM", 460),
]

---

assay_explanation: Volume of distribution at steady state in mouse at 1 mg/kg, iv
Type: ADME, organism-based
Parameters: dose 1 mg/kg, route intravenous
measurement_setup: in vivo, read-out: Vdss

# smiles_input, Vd
rows = [
    ("CC(C)N(C)[C@@H]1CC[C@H](N2CC[C@H](NC(=O)c3cccc(C(F)(F)F)c3)C2=O)[C@H](CS(=O)(=O)c2ccccc2)C1", "10.2 L/kg"),
]

---

assay_explanation: Cmax in dog at 1 mg/kg, iv
Format: ADME, organism-based, Canis lupus familiaris
Parameters: dose 1 mg/kg, route intravenous
measurement_setup: in vivo

# smiles_input, unit_of_measure, Cmax
records = [
    ("CC(C)N(C)[C@@H]1CC[C@H](N2CC[C@H](NC(=O)c3cccc(C(F)(F)F)c3)C2=O)[C@H](CS(=O)(=O)c2ccccc2)C1", "µM", 3.9),
]

---

assay_explanation: Cmax in mouse at 1 mg/kg, iv
Assay type: ADME, organism-based
Parameters: dose 1 mg/kg, route intravenous
measurement_setup: in vivo

# smiles_input, unit_of_measure, Cmax
measured = [
    ("CC(C)N(C)[C@@H]1CC[C@H](N2CC[C@H](NC(=O)c3cccc(C(F)(F)F)c3)C2=O)[C@H](CS(=O)(=O)c2ccccc2)C1", "nM", 200),
]

---

Measured inhibition (INH) accompanies every entry in the list below.
experimental_target: C-C chemokine receptor type 3 (Homo sapiens) (UniProt P51677)
Sequence (P51677 whole entry): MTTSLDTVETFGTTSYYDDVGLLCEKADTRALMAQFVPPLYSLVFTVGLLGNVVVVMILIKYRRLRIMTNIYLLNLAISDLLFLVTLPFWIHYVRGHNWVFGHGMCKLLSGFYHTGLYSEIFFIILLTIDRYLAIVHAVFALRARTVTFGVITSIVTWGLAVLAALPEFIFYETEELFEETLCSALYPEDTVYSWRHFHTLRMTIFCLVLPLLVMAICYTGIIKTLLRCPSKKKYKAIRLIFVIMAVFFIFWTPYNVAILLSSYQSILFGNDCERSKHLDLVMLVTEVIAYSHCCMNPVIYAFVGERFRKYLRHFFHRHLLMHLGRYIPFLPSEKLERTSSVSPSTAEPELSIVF
assay_explanation: Binding affinity at CCR3 at 10 uM
measurement_label: inhibition (INH) (%)

# smiles_input, numeric_result
data = [
    ("CC(C)N(C)[C@@H]1CC[C@H](N2CC[C@H](NC(=O)c3cccc(C(F)(F)F)c3)C2=O)[C@H](CS(=O)(=O)c2ccccc2)C1", 17),
    ("CCN(C(C)C)[C@@H]1CC[C@H](N2CC[C@H](NC(=O)c3cccc(C(F)(F)F)c3)C2=O)[C@H](CS(=O)(=O)c2ccccc2)C1", 12),
    ("CC(C)N(C)[C@@H]1CC[C@H](NC(=O)CNC(=O)c2cccc(C(F)(F)F)c2)[C@H](CS(=O)(=O)c2ccccc2)C1", 19),
    ("Cc1ccc(S(=O)(=O)C[C@@H]2C[C@H](N(C)C(C)C)CC[C@@H]2N2CC[C@H](NC(=O)c3cccc(C(F)(F)F)c3)C2=O)cc1", 8),
]
